# TARGET: RORγt (Homo sapiens)
# Construct: The plasmid of pFN26A-RORγt-LBD and pG14.35 (Promega, Cat. No. E1370) were co-transfected into HEK 293 cells; expressed in transfected cells; host or cells: HEK 293 cells (Cat. No. GNHu18)
# Sequence (P51449 269-508 limits assumed, species assumed): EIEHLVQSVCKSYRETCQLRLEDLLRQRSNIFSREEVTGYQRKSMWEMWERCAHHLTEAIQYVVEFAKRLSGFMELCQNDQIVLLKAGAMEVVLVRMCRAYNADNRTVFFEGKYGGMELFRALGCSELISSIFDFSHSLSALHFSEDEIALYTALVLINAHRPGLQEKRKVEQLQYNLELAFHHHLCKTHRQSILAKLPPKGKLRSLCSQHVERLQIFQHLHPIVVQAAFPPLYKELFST
# PROCEDURE_SUMMARY: RORγt cellular reporter gene detection assay;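 also: Ursolic Acid added as 5 µL of 20 µM medium per well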
# Format: cell-based
# APPLIED_CONDITIONS: upper activation limit; HEK 293 cells, in presence of antagonist Ursolic acid, 24 hrs
ASSAY_READOUT: Cellular Reporter Assay Amax

// solved cases for Cellular Reporter Assay Amax follow
{"columns": ["SMILES_INPUT", "READING"],
 "data": [
  ["N#CC(CO)(CO)N1CCN2c3ccc(-c4cc(F)cc(OC(F)F)c4)cc3N(S(=O)(=O)c3cccc(C(F)(F)F)c3)C[C@@H]2C1", 6.2],
  ["CC(=O)N1CCN2c3ccc(-c4cc(F)cc(OC(F)F)c4)cc3N(S(=O)(=O)c3cccc(C(F)(F)F)c3)C[C@@H]2C1", 3.7],
  ["CCOC(=O)CN1CCN2c3ccc(/C=C(\\C)c4c(F)cccc4Cl)cc3N(S(=O)(=O)c3cccc(C(F)(F)F)c3)C[C@@H]2C1", 3.0]
]}

(1) CC(CO)(CO)N1CCN2c3ccc(-c4cc(F)cc(OC(F)F)c4)cc3N(S(=O)(=O)c3cccc(C(F)(F)F)c3)C[C@@H]2C1
(2) CN1c2ccc(C3CC(C)(C)OC(C)(C)C3)cc2N(S(=O)(=O)c2cccc(C(F)(F)F)c2)C[C@@H]1CCC(=O)O
(3) O=C(O)[C@H]1CCN2c3ccc(-c4cc(F)cc(OC(F)F)c4)cc3N(S(=O)(=O)c3cccc(C(F)(F)F)c3)C[C@@H]2C1
Prompt: // ascending sort on recorded Cellular Reporter Assay Amax Order the labels as requested and list them.
Completion: 2, 1, 3
(2: 1.1, 1: 2.6, 3: 5.4)
